# system-name: OR2W1 (Homo sapiens, UniProt Q9Y3N9)
# Construct: expressed in transfected cells; host or cells: HEK293
# Sequence (Q9Y3N9 whole entry): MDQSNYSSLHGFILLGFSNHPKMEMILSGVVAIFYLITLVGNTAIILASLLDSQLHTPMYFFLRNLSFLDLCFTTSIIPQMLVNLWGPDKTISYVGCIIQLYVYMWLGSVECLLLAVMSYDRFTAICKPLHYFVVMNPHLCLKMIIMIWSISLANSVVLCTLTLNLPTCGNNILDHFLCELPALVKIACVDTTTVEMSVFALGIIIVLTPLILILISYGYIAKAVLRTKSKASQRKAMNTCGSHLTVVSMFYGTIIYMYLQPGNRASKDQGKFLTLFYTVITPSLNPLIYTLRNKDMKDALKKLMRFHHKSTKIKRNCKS
# measurement-protocol: Luciferase reporter assay: suppression of the skatole response of OR2W1 expressed in HEK293 cells
# Type: cell-based
# reported-conditions: test substance 100 μM mixed with 300 μM skatole, HEK293 cells expressing OR2W1

molecule: CC1=CC(C)C(C=O)CC1 (stereo not shown) [Triplal, Dimethyl-3-cyclohexene-1-carboxaldehyde]
Inhibition rate 2W1: C (C >20%)
--
molecule: C=CCOC(=O)CCC1CCCCC1 [Allyl cyclohexylpropionate]
Inhibition rate 2W1: C (C >20%)
--
molecule: CC(=O)C=CC1=C(C)CCCC1(C)C [β-ionone]
Inhibition rate 2W1: C (C >20%)
